Cited source for all entries: patent US20260242478A1

- ASSAYED_SYSTEM: Anti-CD28 scFv (VH - linker 1 - VL) (biotinylated (site not stated))
- Sequence (scFv, as listed by the source): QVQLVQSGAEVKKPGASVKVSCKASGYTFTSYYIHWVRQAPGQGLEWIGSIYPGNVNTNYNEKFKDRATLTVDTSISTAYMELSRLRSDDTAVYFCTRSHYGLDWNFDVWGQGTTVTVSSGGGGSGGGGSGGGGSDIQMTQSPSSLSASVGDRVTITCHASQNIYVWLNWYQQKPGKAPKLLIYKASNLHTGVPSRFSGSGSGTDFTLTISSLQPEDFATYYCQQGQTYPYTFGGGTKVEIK
- RUN_DESCRIPTION: clonal phage ELISA on anti-CD28 scFv plate; wells pre-incubated with soluble CD28 as competitor
READOUT_KIND: CD28 scFv signal in presence of CD28
Simply state the number, no unit and no words.

Use the examples below as a reference point.
>  <BINDER>
MDWCPRDRWDVCYY (Clone of the Peptide-9 optimisation library) [Phage-447]

>  <CD28 scFv signal in presence of CD28>
0.073

$$$$
>  <BINDER>
MAWCPWASFDECLA (Clone of the Peptide-9 optimisation library) [Phage-448]

>  <CD28 scFv signal in presence of CD28>
0.109

$$$$
>  <BINDER>
MDWCPSDYWYVCFA (Clone of the Peptide-9 optimisation library) [Phage-453]

>  <CD28 scFv signal in presence of CD28>
0.08

$$$$

Next binder, please.
So for MDWCPRDWWHMCFN (Clone of the Peptide-9 optimisation library) [Phage-452] , the logged CD28 scFv signal in presence of CD28 turned out to be 0.243
